Ref: ChEMBL document CHEMBL5104216

compounds and their reported Activity
Molecular target: D-alanine--D-alanine ligase B (Escherichia coli K-12)
Test: Inhibition of recombinant Escherichia coli DdlB assessed as residual activity at 500 uM using D-alanine as substrate incubated for 20 mins and measured by malachite green based colorimetric assay relative to control
Assay Metric: Activity (%)

{"columns": ["Chemical Structure", "Assay Metric", "Reading Unit", "Readout Value"],
 "data": [
  ["Nc1nc(-c2ccncc2)cs1", "Activity", "%", 96],
  ["CCOC(=O)c1cnc(Br)s1", "Activity", "%", 90],
  ["Clc1nccs1", "Activity", "%", 93],
  ["Cc1nc(CCl)cs1", "Activity", "%", 100]
]}

----------
Assay: Redox activity of compound assessed as redox index at 100 uM measured by H2DCFDA assay
Assay type: physicochemical
Label satisfied when Activity_index is strictly below 1; at or above that, label not satisfied.

{"columns": ["Chemical Structure", "Category"],
 "data": [
  ["O=C(O)c1csc(-c2ccc(F)cc2)n1", "not satisfied"],
  ["Nc1nc(CC(=O)O)cs1", "not satisfied"],
  ["COC(=O)CC(=O)Nc1ncc(C#N)s1", "satisfied"],
  ["CCOC(=O)c1sc(Br)nc1C", "not satisfied"],
  ["Cc1nc(-c2ccc(C(=O)O)cc2)cs1", "satisfied"],
  ["N#Cc1cnc(NC(=O)CC(=O)O)s1", "satisfied"],
  ["Cc1nc(C(=O)O)cs1", "satisfied"],
  ["Fc1ccc(-c2csc(Br)n2)cc1F", "satisfied"],
  ["CCOC(=O)c1cnc(Br)s1", "satisfied"],
  ["Nc1ncc(Br)s1", "not satisfied"],
  ["Cc1cnc(N)s1", "not satisfied"],
  ["COC(=O)C(=O)Nc1ncc(Br)s1", "satisfied"],
  ["CC(C)(C)c1csc(N)n1", "not satisfied"]
]}

----------
compounds and their reported Activity
Target: UDP-N-acetylglucosamine 1-carboxyvinyltransferase (Escherichia coli K-12) (UniProt P0A749)
Sequence (P0A749 whole entry): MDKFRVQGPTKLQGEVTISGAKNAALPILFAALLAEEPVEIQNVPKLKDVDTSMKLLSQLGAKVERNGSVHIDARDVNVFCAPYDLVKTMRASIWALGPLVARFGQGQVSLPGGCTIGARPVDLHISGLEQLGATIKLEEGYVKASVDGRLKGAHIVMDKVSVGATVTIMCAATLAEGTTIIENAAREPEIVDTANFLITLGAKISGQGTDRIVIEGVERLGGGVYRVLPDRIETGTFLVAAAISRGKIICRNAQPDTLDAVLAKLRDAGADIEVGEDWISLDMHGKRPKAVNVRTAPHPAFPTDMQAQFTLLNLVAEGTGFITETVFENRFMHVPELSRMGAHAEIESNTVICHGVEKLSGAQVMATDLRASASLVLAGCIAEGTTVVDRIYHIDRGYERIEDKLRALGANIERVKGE
Experiment: Inhibition of recombinant Escherichia coli MurA assessed as residual activity at 500 uM using UDP-N-acetylglucosamine as substrate preincubated for 30 mins in presence of 1 mM DTT followed by substrate addition and measured by malachite green based colorimetric assay relative to control

{"columns": ["Chemical Structure", "Reading Unit", "Activity"],
 "data": [
  ["CCOC(=O)Cc1csc(N)n1", "%", 88.1],
  ["O=C(O)c1csc(Br)n1", "%", 101],
  ["N#Cc1cnc(Br)s1", "%", 100],
  ["Clc1nccs1", "%", 107],
  ["O=S(=O)(Cc1ccccc1)Nc1nccs1", "%", 94],
  ["Brc1cnc(Br)s1", "%", 99],
  ["O=C(O)C(=O)Nc1ncc(Br)s1", "%", 112],
  ["Brc1nncs1", "%", 114],
  ["NCCc1cn(Cc2cscn2)nn1", "%", 110],
  ["Nc1nnc(C(F)(F)F)s1", "%", 101],
  ["COC(=O)CC(=O)Nc1ncc(Br)s1", "%", 107],
  ["Nc1nccs1", "%", 105],
  ["COC(=O)c1cnc(Br)s1", "%", 102],
  ["Nc1nc(C(=O)O)cs1", "%", 107],
  ["O=C(O)c1csc(-c2ccc(F)cc2)n1", "%", 90],
  ["Nc1nnc(C2CC2)s1", "%", 99.8],
  ["Cc1nc(C(=O)O)cs1", "%", 105],
  ["O=C(O)Cc1csc(Br)n1", "%", 106],
  ["O=C(O)c1csc(Nc2cccc3ncccc23)n1", "%", 80.9]
]}

----------
System: Mycobacterium tuberculosis
Assay: Inhibition of Mycobacterium tuberculosis MetAP1a assessed as residual activity at 625 uM using L-methionine 7-amido-4-methylcoumarin as fluorogenic substrate and measured by fluorescence based assay
Assay Metric: Activity (%)

{"columns": ["Chemical Structure", "Assay Metric", "Reading Unit", "Readout Value"],
 "data": [
  ["CCOC(=O)c1csc(Br)n1", "Activity", "%", 90.8],
  ["Brc1nncs1", "Activity", "%", 106],
  ["O=C(O)c1csc(Br)n1", "Activity", "%", 81.7],
  ["CCOC(=O)c1csc(N)n1", "Activity", "%", 93.7],
  ["N#Cc1cnc(NC(=O)C(=O)O)s1", "Activity", "%", 150],
  ["Nc1nccs1", "Activity", "%", 94.6],
  ["CC(C)(C)c1csc(N)n1", "Activity", "%", 128],
  ["CC(=O)c1nc(C)cs1", "Activity", "%", 136],
  ["NCCc1cn(Cc2cscn2)nn1", "Activity", "%", 94],
  ["CCOC(=O)c1sc(Br)nc1C", "Activity", "%", 115],
  ["Nc1nc(-c2ccncc2)cs1", "Activity", "%", 110],
  ["Nc1ncc(Br)s1", "Activity", "%", 156],
  ["COC(=O)c1csc(Br)n1", "Activity", "%", 88.2],
  ["N#Cc1cnc(N)s1", "Activity", "%", 90.8],
  ["O=C(O)c1csc(-c2ccc(F)cc2)n1", "Activity", "%", 141],
  ["O=C(O)c1csc(-c2ccncc2)n1", "Activity", "%", 93.4],
  ["N#Cc1cnc(NC(=O)CC(=O)O)s1", "Activity", "%", 146],
  ["Nc1nc(C(=O)O)cs1", "Activity", "%", 155],
  ["O=C(O)C(=O)Nc1ncc(Br)s1", "Activity", "%", 28.9],
  ["Brc1cnc(Br)s1", "Activity", "%", 71.7],
  ["Cc1nc(-c2ccc(C(=O)O)cc2)cs1", "Activity", "%", 136],
  ["Nc1nc(CC(=O)O)cs1", "Activity", "%", 125]
]}
